Recorded GI50, one value per entry.
- Tested on: Malme-3M
- assay protocol: NCI tumour cell line growth inhibition, 48 h
Activity calls are given as the source filed them. Rule as the data show it: active = GI50 up to about 1.1 µM and inactive = higher. Square brackets hold non-standard residues; d marks the D form. Peptide text beside a SMILES is read from it. Ac5c = NC1(C(=O)O)CCCC1
outcome measure: GI50

INSERT INTO results (compound, data_value) VALUES
  ('CC(=O)Nc1ccc(/C=C(\NC(=O)c2ccccc2)C(=O)NNS(=O)(=O)c2ccc(C)cc2)cc1', '> 100 µM (inactive)'),
  ('CNC(=O)N(CCC#N)CCN(C(=O)NC)c1ccccc1', '> 73.8 µM (inactive)'),
  ('Nc1ccc(-c2nc3ccccc3s2)cc1', '17.6 µM (inactive)'),
  ('CCOC(=O)c1c(-c2ccc(OC)cc2)c(C#N)c(=S)n(C2OC(CO)C(O)C(O)C2O)c1-c1ccccc1 (centres undefined)', '73.5 µM (inactive)'),
  ('N#CC(Nc1ccccc1)c1ccc(C(C#N)Nc2ccccc2)cc1 (centres undefined)', '> 100 µM (inactive)'),
  ('Nc1ccc(N)c2c1C(=O)c1ccccc1C2=O', '24 µM (inactive)'),
  ('CC1(C)OC2C(O)CN3CCS[C@H]3C2O1 (some centres undefined)', '> 100 µM (inactive)'),
  ('COC(=O)c1c[nH]cc1CCCCc1c[nH]cc1C(=O)OC', '> 100 µM (inactive)'),
  ('Cc1ccc(NC(=O)CCc2nnc3s/c(=C\C=C\c4ccccc4)c(=O)n23)cc1', '> 100 µM (inactive)'),
  ('Cc1cn(Cc2ccccc2CCO)c(=S)[nH]c1=O', '> 100 µM (inactive)'),
  ('CN1CCCN(C)CCCN(C)CCCN(C)CCC1', '> 100 µM (inactive)'),
  ('NS(=O)(=O)c1ccc(NC(=O)C2C(=O)C(=O)N(c3ccc(S(N)(=O)=O)cc3)C2=O)cc1 (centres undefined)', '> 100 µM (inactive)'),
  ('COc1ccc2nc3cc(Cl)ccc3c(Sc3ccc([N+](=O)[O-])cc3)c2c1', '> 10 µM (inactive)'),
  ('CCOC(=O)/C(=C/c1ccc(C(F)(F)F)cc1)N(CC)CC', '57.5 µM (inactive)'),
  ('CN(C)C1COC2Cc3ccccc3C1O2 (centres undefined)', '> 100 µM (inactive)'),
  ('CCOC(=O)C(Cc1ccc([N+](=O)[O-])cc1)NC(=O)CC1c2ccccc2-c2ccccc21 (centres undefined)', '20.6 µM (inactive)'),
  ('COc1ccc(C23OCC(Cc4cc(OC)c(OC)cc42)C3CO)cc1OC (centres undefined)', '> 100 µM (inactive)'),
  ('Cc1ccc(-c2n[nH]c(=O)n2N2C(=O)c3ccccc3C2=O)cc1', '> 100 µM (inactive)'),
  ('Cc1nc(-c2nc(C)c(C(=O)/C=C/c3ccc([N+](=O)[O-])cc3)s2)sc1C(=O)/C=C/c1ccc([N+](=O)[O-])cc1', '> 100 µM (inactive)'),
  ('O=C1c2cc3c(cc2CC12Cc1ccc4c(c1C2=O)CCC4)CCC3 (centres undefined)', '41.7 µM (inactive)'),
  ('CC1=C(C#N)c2nc3ccccc3n2C(=O)C1(C)CCO (centres undefined)', '> 100 µM (inactive)'),
  ('Cc1c2c(c(C)c3c1[nH]c1ccccc13)CN(C)CC2', '16.7 µM (inactive)'),
  ('OC1c2ccccc2C2(O)C1C(c1ccccc1)C(c1ccccc1)C2(O)c1ccccc1 (centres undefined)', '12.7 µM (inactive)'),
  ('NCC(=O)NC1(C(=O)O)CCCC1 (H-Gly-[Ac5c]-OH)', '> 100 µM (inactive)'),
  ('N/C(=N\c1ccc(Cl)cc1)NS(=O)(=O)c1ccc(-c2ccccn2)s1', '12.4 µM (inactive)'),
  ('O=C1O[C@H](c2ccc3c(c2)OCO3)[C@H]2CO[C@@H](c3ccc4c(c3)OCO4)[C@@H]12', '> 100 µM (inactive)'),
  ('O=c1oc2ccc3ccccc3c2cc1-c1nnc(-c2ccc([N+](=O)[O-])cc2)[nH]1', '91.2 µM (inactive)'),
  ('COC(=O)/C=C/c1ccc2c(c1)CCC2', '66.5 µM (inactive)'),
  ('CCCCCCCCCCCC1CC(=O)NCCCN(C)CCCCN(C)CCCN1C (centres undefined)', '1.9 µM (inactive)'),
  ('Cc1ccc(C(=O)OCC(C)C)cc1/N=N/N(C)C', '> 100 µM (inactive)'),
  ('O=C(/C=C/c1ccccc1Cl)c1ccc(Cl)cc1Cl', '18.9 µM (inactive)'),
  ('Cc1ccc(/C=N/NS(=O)(=O)c2ccccc2)c(C)c1', '> 100 µM (inactive)'),
  ('CCCCSC1=N/C(=C\c2ccc(N(C)C)cc2)C(=O)N1', '38.4 µM (inactive)'),
  ('O=C(O)CNCCc1ccccc1', '> 100 µM (inactive)'),
  ('O=C1NC(Cc2ccc(O)cc2)C(=O)NC1Cc1ccc(O)cc1 (centres undefined)', '> 100 µM (inactive)'),
  ('CN(C)/C=C/c1nnnn1-c1ccc(I)cc1', '21 µM (inactive)'),
  ('CCOc1cc(C2SCC(=O)N2c2nc3cc4sc(N5C(=O)CSC5c5ccc(O)c(OCC)c5)nc4cc3s2)ccc1O (centres undefined)', '> 68.9 µM (inactive)'),
  ('Nc1ncnc2c1ncn2C1C=C(CO)C(O)C1O (centres undefined)', '5.33 µM (inactive)'),
  ('CCOC(=O)C1N(S(=O)(=O)c2ccc(C)cc2)CCC12C(c1ccc(OC)cc1)NC1CCCCC12 (centres undefined)', '67.3 µM (inactive)'),
  ('COC(=O)[C@]1(C)CCC[C@]2(C)C3CC4OOC3(C=C4C(C)C)CCC21 (some centres undefined)', '20.8 µM (inactive)'),
  ('CCOC(=O)C1=C(C(C)=O)CSC(c2ccccc2)=N1', '> 100 µM (inactive)'),
  ('Nc1n[n+]2cc(-c3ccccc3)n(CC(=O)c3ccccc3)c2s1', '12.2 µM (inactive)'),
  ('CC(C(=O)O)c1ccc(-c2ccccc2)c(F)c1 (centres undefined)', '> 100 µM (inactive)'),
  ('Oc1ccc2oc3c(O)c4ccccc4cc3c2c1', '11.4 µM (inactive)');
